Target: human CD3 (human) (UniProt P07766)
Sequence (P07766 23-207): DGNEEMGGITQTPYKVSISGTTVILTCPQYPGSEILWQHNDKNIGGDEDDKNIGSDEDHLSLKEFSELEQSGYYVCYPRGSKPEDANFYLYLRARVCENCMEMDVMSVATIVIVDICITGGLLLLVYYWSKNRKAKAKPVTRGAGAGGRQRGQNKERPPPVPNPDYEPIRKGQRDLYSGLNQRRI
Assay: cell-based or functional assay
Quick reference: Apo-One Apoptosis Assay, 25 ng/ml of the listed items.
observed_property: Apo-One Apoptosis Assay, 25 ng/ml

1) anti-CD3 HuFR antibody 3 (heavy chain BD20611, light chain BD21132) (antibody, part only; not given: Heavy stretch before framework 4, V domains shown, part only) VH, part: QVQLVESGAEVKKPGASVKVSCKASGYTFTRYTMHWVRQAPGKGLEWMGYINPSRGYTNYNQKFKDRLTISKDTSKNQVVLTMTNMDPVDTATYYCARYYDDHYCLDYVTVSSASTKGPS VL: EIVLTQSPATLSLSPGERATLSCSASSSVSYMNWYQQKPGKAPKLLIYDTSKLASGVPSRFSGSGSGTEFTLTISSLQPDDFATYYCQQWSSNPFTFGQGTKVEIKFGQGTKVEIKR : 854
2) anti-CD3 HuFR antibody 5 (heavy chain BD20611, light chain BD21134) (antibody, part only; not given: Heavy stretch before framework 4, V domains shown, part only) VH, part: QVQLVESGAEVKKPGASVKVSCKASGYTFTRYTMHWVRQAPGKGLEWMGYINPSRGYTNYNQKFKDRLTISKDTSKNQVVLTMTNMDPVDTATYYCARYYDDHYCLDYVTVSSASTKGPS VL: EIVMTQSPATLSVSPGERATLSCSASSSVSYMNWYQQKPGQPPKLLIYDTSKLASGVPSRFSGSGSGTEFTLTISSLQPDDFATYYCQQWSSNPFTFGQGTKVEIKFGQGTKVEIKR : 1660
3) anti-CD3 HuFR antibody 9 (heavy chain BD20613, light chain BD21138) (antibody, part only; not given: few VH framework 4 residues, V domains shown, part only) VH, part: QVQLQESGPGLVKPSETLSLTCAVSGYTFTRYTMHWVRQAPGKGLEWVGYINPSRGYTNYNQKFKDRFTISRDDSKNTAYLQMNSLKTEDTAVYYCTRYYDDHYCLDYVTVSSASTKGPS VL: DIQMTQSPSTLSASVGDRVTITCSASSSVSYMNWYQQKPGKAPKLLIYDTSKLASGVPDRFSGSGSGTDFTLKISRVEAEDVGVYYCQQWSSNPFTFGQGTKVEIKFGQGTKVEIKR : 1380

Entry source: patent US20090285813A1
